Test system: SK-MEL-5 melanoma
Experiment: NCI tumour cell line growth inhibition, 48 h
# TGI >= 10 µM gives y, anything below gives n

compound=Cn1nc2ccccc2cc1=O assigned_label=y
compound=COc1cc(N2CCC(N3CCN(C)CC3)CC2)ccc1Nc1ncc(Cl)c(Nc2ccccc2S(=O)(=O)C(C)C)n1 assigned_label=n
compound="O=C(c1ccccc1)C1C[C@H]2CO[C@H](c3ccccc3)N2C1=O (some centres not stated)" assigned_label=y
compound=O=[N+]([O-])c1cc2c(c([N+](=O)[O-])c1)Nc1ccccc1O2 assigned_label=y
compound="O=C(O)C1=NN(c2ccc(S(=O)(=O)O)cc2)C2(C1)SCC(=O)N2c1nc2ccccc2s1 (configuration not stated)" assigned_label=y
compound=CCOC(=O)c1ccc(N=c2oc3ccc(OC)cc3cc2-c2nc3ccccc3[nH]2)cc1 assigned_label=y
compound=O=c1ccnc(SCc2ccc(Cl)cc2)[nH]1 assigned_label=y
compound=COc1cc2c(cc1OC)-c1cc3ccc(OC)c(OC)c3c[n+]1CC2 assigned_label=y
compound=COc1cc(Nc2nc3cc(C(F)(F)F)ccc3nc2C)cc(OC)c1OC assigned_label=y
compound=CCOP(=O)(OCC)C(F)(F)Cc1cnc(C)c2c1COC(C)(C)O2 assigned_label=y
compound=O=Nc1c(NO)ccc2nn(-c3ccccc3)nc12 assigned_label=y
compound="CC1C(O)Oc2cc3c(cc2C1c1ccccc1O)OCO3 (configuration not stated)" assigned_label=y
compound="COc1ccc(C2CC(=O)c3c(O)c(OC)c(OC)c(OC)c3O2)cc1O (configuration not stated)" assigned_label=n
compound=CCCc1c(C(=O)OCC)[nH]c(C(=O)CCC(=O)c2[nH]c(C(=O)OCC)c(CCC)c2C(=O)OCC)c1C(=O)OCC assigned_label=y
compound=CCOC(=O)c1cc(OC(=O)CC)c2c(OC)ccc(OC)c2c1 assigned_label=y
compound=Cc1ccccc1NC(=O)c1ccc([N+](=O)[O-])cc1 assigned_label=y
compound=Clc1ccc2c(NCCNc3nc(N4CCCC4)nc4ccccc34)ccnc2c1 assigned_label=n
compound="COc1cc2c(cc1OCCCN1CCN(c3ncnc4ccccc34)CC1)N=CC1CCCN1C2=O (configuration not stated)" assigned_label=n
compound=Cc1ccc(/C=N/NS(=O)(=O)c2ccc(/C=C3\NC(=O)NC3=O)cc2)cc1 assigned_label=y
compound=CC(=O)C1=C(O)CCC1=O assigned_label=y
compound=CCCCCCCCCCCCCCCCCC[N+](C)(C)Cc1ccc(C[N+](C)(C)CCCCCCCCCCCCCCCCCC)cc1 assigned_label=y
compound=c1cc(C[S+]2CCCC2)sc1C[S+]1CCCC1 assigned_label=y

----------
Form field: TGI (one value per entry).
Tested on: HCT-15 colon
Assay: NCI tumour cell line growth inhibition, 48 h
Where a SMILES comes first, the peptide text is derived from it. [ ]: non-standard residue; d: D form. The star is where a group is joined. Bn2Val = CC(C)[C@@H](C(=O)*)N(Cc1ccccc1)Cc1ccccc1; NH(3,4-diMeO-benzyl) = COc1ccc(CN*)cc1OC; NMeV = CN[C@H](C(=O)O)C(C)C
quantity.kind: TGI (µM)

compound="CC1=Nc2ccccc2C12C(c1ccccc1)C(c1ccccc1)C(=O)N1c3ccccc3CC12 (stereo not drawn)" value_operator=> obs_value=100
compound=O=C(c1cccs1)N(Cc1cccnc1)C(=S)N(Cc1cccnc1)C(=O)c1cccs1 value_operator=> obs_value=100
compound=COC(=O)/C=C1/OC(c2ccc(C)cc2)=C(Cl)C1=O value_operator== obs_value=26.4
compound=CCO/C=C(\C(=O)OC)S(=O)(=O)c1ccc(C)cc1 value_operator=> obs_value=100
compound=CCOC(=O)Nn1c(C)cc(C(=O)OC)c1C value_operator=> obs_value=100
compound="NC(CC(=O)O)(Cc1ccccc1)C(=O)O (stereo not drawn)" value_operator=> obs_value=100
compound=CCN(CC)C(=S)SS(=O)(=O)c1ccc(NC(C)=O)cc1 value_operator=> obs_value=100
compound=CC[CH2][Sn]([CH2]CC)([O]C(=O)Cc1ccc(F)cc1)[O][Sn]([CH2]CC)([CH2]CC)[O]C(=O)Cc1ccc(F)cc1 value_operator== obs_value=0.658
compound="Cc1ccc(C2SCC(=O)N2NC(=O)c2ccncc2)s1 (stereo not drawn)" value_operator=> obs_value=100
compound="N#CC(c1ccccc1)N(CCOCCOCCN(C(=O)c1cccc2ccccc12)C(C#N)c1ccccc1)C(=O)c1cccc2ccccc12 (stereo not drawn)" value_operator=> obs_value=100
compound=Cc1cc(N(CCOS(C)(=O)=O)CCOS(C)(=O)=O)ccc1C=Nc1ccc(-c2csc(-c3ccc(Br)cc3)n2)cc1 value_operator== obs_value=50.3
compound=CCN1CCN(c2ccc(Nc3ncc4ccc5ncn(C(C)C)c5c4n3)nc2)CC1 value_operator== obs_value=1.16
compound=COc1cccc(Nc2nc(N)nc(N)c2N=O)c1 value_operator== obs_value=47
compound="CCCCCC/C=C1\\CCC(CN(C)C)C1=O (stereo not drawn)" value_operator== obs_value=6.61
compound="COc1ccc(C2C3=C(COC3=O)Oc3cc4c(cc32)OCO4)cc1 (stereo not drawn)" value_operator=> obs_value=100
compound=CCOC(=O)c1cc(C#N)[nH]c1-c1ccsc1 value_operator=> obs_value=100
compound="COc1ccc(CNC(=O)[C@@H]2CCCN2C(=O)[C@@H]2CCCN2C(=O)[C@H](C(C)C)N(C)C(=O)[C@@H](NC(=O)[C@H](C(C)C)N(Cc2ccccc2)Cc2ccccc2)C(C)C)cc1OC (Bn2Val-V[NMeV]PP-{NH(3,4-diMeO-benzyl)})" value_operator== obs_value=31.4
compound="CC(CN)[C@@H]1CC[C@]2(CO)CC[C@]3(C)[C@H](CC[C@@H]4[C@@]5(C)CCC(N)C(C)(C)[C@@H]5CC[C@]43C)[C@@H]12 (stereo partly drawn)" value_operator== obs_value=3.49
compound="C/C=C/C1=CN2C(=O)c3cc(OC4OC(C)C(NC)C(C)(O)C4O)c(C)c(O)c3N=C[C@@H]2C1 (stereo partly drawn)" value_operator== obs_value=11
compound=CCc1ccccc1NC(=O)C(=O)CC(=O)c1sc(Nc2ccccc2Cl)nc1C value_operator== obs_value=92
compound="O=C1OC(CS(=O)(=O)c2ccccc2)CC1O (stereo not drawn)" value_operator=> obs_value=100
compound=Cc1nnc2n1N=C(c1cc(F)c(Cl)cc1Cl)/C(=C/c1ccc3c(c1)OCO3)S2 value_operator=> obs_value=100
compound=O=c1ccnc(SCc2ccc(Cl)cc2)[nH]1 value_operator=> obs_value=100
compound=C=C(C)[C@@H]1CC[C@]2(C(N)=O)CC[C@]3(C)[C@H](CC[C@@H]4[C@@]5(C)C/C(=C/c6cccnc6)[C@H](O)C(C)(C)[C@@H]5CC[C@]43C)[C@@H]12 value_operator=> obs_value=100
compound=COC1=C(OC)[C@]2(OC)c3c(O)c(OC)c4c(c3O[C@@]23O[C@@H](c2ccccc2)CC=C3C1=O)[C@@H](O)C[C@H](c1ccccc1)O4 value_operator== obs_value=0.34
compound=COc1cc(/C=C2\C[C@H]3[C@@H]4CC=C5C[C@@H](OC(C)=O)CC[C@]5(C)[C@H]4CC[C@]3(C)[C@H]2OC(C)=O)ccc1OCCN1CCCCC1 value_operator== obs_value=15.8
compound="O=C(c1ccccc1)C1C[C@H]2CO[C@H](c3ccccc3)N2C1=O (stereo partly drawn)" value_operator=> obs_value=100
compound="CCOC(=O)NC1CC2CCC1(OC)C=C2C (stereo not drawn)" value_operator=> obs_value=100
compound=O=C1COCCN1C(=O)c1ccccc1Cl value_operator=> obs_value=100
compound=Cn1c(=O)cc(N2CCCC2)[nH]c1=O value_operator=> obs_value=100
compound=Cn1c(=O)n2n(c1=O)[C@@H](c1ccccc1)[C@H]2c1ccccc1 value_operator=> obs_value=100
compound="CC1c2cc(c3c(c2O)CN([C@@H](C)C2CCCCC2)CO3)C(C)c2cc(c3c(c2O)CN([C@@H](C)C2CCCCC2)CO3)C(C)c2cc(c3c(c2O)CN([C@@H](C)C2CCCCC2)CO3)C(C)c2cc1c1c(c2O)CN([C@@H](C)C2CCCCC2)CO1 (stereo partly drawn)" value_operator== obs_value=2.92
compound=COC(=O)[C@H](COC(=O)/C=C/c1ccc(OC(C)=O)c(OC(C)=O)c1)NC(=O)/C=C/c1ccc(OC(C)=O)c(OC(C)=O)c1 value_operator== obs_value=70.6

----------
Form field: TGI (one value per entry).
System: K-562 leukemia
Assay: NCI tumour cell line growth inhibition, 48 h
quantity.kind: TGI

molecule="COc1ccc(C(c2cc3c(cc2O)OCO3)N2CCOCC2)cc1OC (stereo not given)" measured_target="K-562 leukemia" obs_value="69.4 µM"
molecule="Nc1ncnc2c1ncn2C1CC(OC2CCCCO2)C(CO)O1 (stereo not given)" measured_target="K-562 leukemia" obs_value="> 100 µM"
molecule="Cc1cc(=O)[nH]c(NNC(C#N)c2ccco2)n1 (stereo not given)" measured_target="K-562 leukemia" obs_value="> 100 µM"
molecule=CC/C(SC)=[N+](\C)[O-] measured_target="K-562 leukemia" obs_value="> 100 µM"
molecule=O=[N+]([O-])c1cc2c(c([N+](=O)[O-])c1)Nc1ccccc1O2 measured_target="K-562 leukemia" obs_value="> 100 µM"
molecule=CC(C)(C)C(=O)/C=C/c1cccc(Oc2ccccc2)c1 measured_target="K-562 leukemia" obs_value="30.1 µM"
molecule=CCOC(=O)c1c(CN2CCCC2)n(-c2ccccc2)c2cc(Br)c(OC)cc12 measured_target="K-562 leukemia" obs_value="43.3 µM"
molecule="Cc1nc2sc(C(=O)Nc3cccc(Br)c3)c(N)c2cc1C(O)c1ccccc1 (stereo not given)" measured_target="K-562 leukemia" obs_value="> 42.7 µM"
molecule="Cc1cn(C2CC(NC(=NCC3OC(n4cnc5c(N)ncnc54)CC3O)NC#N)C(CO)O2)c(=O)[nH]c1=O (stereo not given)" measured_target="K-562 leukemia" obs_value="> 100 µM"
molecule=O=c1/c(=C/c2ccc([N+](=O)[O-])o2)sc2n1[C@@H](c1ccc3c(c1)OCO3)C=C(c1cc(F)c(Cl)cc1Cl)N=2 measured_target="K-562 leukemia" obs_value="> 100 µM"
